Biological target: T1, human TREM2 on BWZ cells (human, UniProt Q9NZC2 19-230)
T1 construct: whole, on cells; not tied to the cell line; also called BWZ Human TREM2
T1 sequence (looked up): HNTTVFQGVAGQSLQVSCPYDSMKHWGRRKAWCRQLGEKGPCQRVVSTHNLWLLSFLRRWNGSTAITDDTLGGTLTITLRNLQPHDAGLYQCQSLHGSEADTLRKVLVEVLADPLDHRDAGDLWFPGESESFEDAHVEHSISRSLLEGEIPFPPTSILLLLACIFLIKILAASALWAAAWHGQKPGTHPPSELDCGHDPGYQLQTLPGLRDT
Assay: FACS, BWZ human TREM2
Metric name: FOB Fold Over Background (fold)
Enter your answer as a number in fold; do not include the unit.

Given item T1-25 (antibody, IgG1, V domains shown, huIgG1; also called TI-25; ADI-19092) VH: EVQLVESGGGLVQPGRSLRLSCAASGFTFDDYAMHWVRQAPGKGLEWVSGISWNSGSIGYADSVKGRFTISRDNAKNSLYLQMNSLRAEDTALYYCAKGGSRYSHFDYWGQGTLVTVSS VL: EIVLTQSPATLSLSPGERATLSCRASQSVSSYLAWYQQKPGQAPRLLIYDASNRATGIPARFSGSGSGTDFTLTISSLEPEDFAVYYCQQRSVLPLTFGGGTKVEIK , the value recorded as its FOB Fold Over Background is 0.7

The measured FOB Fold Over Background associated with T1-16 (antibody, IgG1, V domains shown, huIgG1; also called TI-16; ADI-19083) VH: EVQLVESGGGLVQPGRSLRLSCAASGFTFDDYAMHWVRQAPGKGLEWVSGISWNSGSIGYADSVKGRFTISRDNAKNSLYLQMNSLRAEDTALYYCAKGPRMSGWWADWGQGTLVTVSS VL: DIQMTQSPSSVSASVGDRVTITCRASQGISSWLAWYQQKPGKAPKLLIYAASSLQSGVPSRFSGSGSGTDFTLTISSLQPEDFATYYCQQADTLPITFGGGTKVEIK reads 0.7

Reported FOB Fold Over Background of T1-32 (antibody, IgG1, V domains shown, huIgG1; also called TI-32) VH: QLQLQESGPGLVKPSETLSLTCTVSGGSISSSSYYWGWIRQPPGKGLEWIGSIYYSGSTYYNPSLKSRVTISVDTSKNQFSLKLSSVTAADTAVYYCARDAPAVVGESPAFDIWGQGTMVTVSS VL: DIQMTQSPSSLSASVGDRVTITCRASQSISRYLNWYQQKPGKAPKLLIYAASSLQSGVPSRFSGSGSGTDFTLTISSLQPEDFATYYCQQSLDLPFTFGGGTKVEIK : 0.9

Sure, the documented FOB Fold Over Background for T1-28 (antibody, IgG1, V domains shown, huIgG1; also called TI-28) VH: EVQLVESGGGLVKPGGSLRLSCAASGFTFSSYSMNWVRQAPGKGLEWVSSISSSSNYIYYADSVKGRFTISRDNAKNSLYLQMNSLRAEDTAVYYCARGPSQYYYDSSAIEAFDIWGQGTMVTVSS VL: EIVLTQSPATLSVSPGERATLSCRASQSVGSNLAWYQQKPGQAPRLLIYGASTRATGIPARFSGSGSGTEFTLTISSLQSEDFAVYYCQQYLYFPLTFGGGTKVEIK is 0.6

So, T1-80 (antibody, IgG1, V domains shown, huIgG1; also called TI-80; ADI-19159) VH: QVQLVESGGGVVQPGRSLRLSCAASGFTFSSYGMHWVRQAPGKGLEWVALIWYDGSNKYYADSVKGRFTISRDNSKNTLYLQMNSLRAEDTAVYYCARELIVGATGGLTYYYGMDVWGQGTTVTVSS VL: EIVMTQSPATLSVSPGERATLSCRASQSVGSNLAWYQQKPGQAPRLLIYGASTRATGIPARFSGSGSGTEFTLTISSLQSEDFAVYYCQQDHDRPLTFGGGTKVEIK ? Its FOB Fold Over Background was 1
